Assay: gradient 5% acetonitrile 3 min, to 50% in 2 min, to 85% in 15 min, held 3 min, 100 µL/min
Details: column: Zorbax Extend-C18 2.1 x 50 mm; eluents: water / acetonitrile, 0.1% formic acid
Overview of recorded RP-LC retention time for various compounds
Give the value, in units of s, as a plain number.

Below are worked cases with known answers.
Item: O=c1ccc(-n2ccnc2)nn1CCNS(=O)(=O)Cc1cc(F)ccc1F | RP-LC retention time: 555

Reported RP-LC retention time for Cc1ccc(Cc2nc(-c3ccc4oc(C)nc4c3)no2)cc1 was 1070

So, CCN(CCCNC(=O)c1nnc(-c2ccc(S(=O)(=O)N3CCCC3)cc2)o1)c1ccccc1 ? Its RP-LC retention time was 714

Noted for CCOC(=O)c1noc2ncnc(N3CCCCCC3)c12 : its RP-LC retention time reads 954

The compound identified as Cc1ccccc1CNC(=O)C1(C)CCCN(C(=O)Nc2ccc(Br)cc2F)C1 (stereo not given) registered its RP-LC retention time at 869

# compound Cn1nccc1-c1cccc(-c2noc(-c3ccccn3)n2)c1 ; its RP-LC retention time = 818

For O=C(Cn1nc2n(c1=O)CCCCC2)NCc1ccc(Cl)cc1 the compound record lists RP-LC retention time as 702

Value of RP-LC retention time reported for the compound CCOc1ccc(-n2c(=O)c3sccc3n(Cc3nc(-c4ccccc4)no3)c2=O)cc1 is 1010

Next:
Value of measured RP-LC retention time for the entry O=c1[nH]c2ccc(NCc3c(F)cccc3Cl)cc2[nH]1 : 636

Sample Cc1cc(N2CCCC2)n2nc(CN3CCCC(C)C3)nc2n1 (stereo not given) ; RP-LC retention time observed: 571

====

Property: RP-LC retention time; scope: individual molecules
Assay: gradient 5% acetonitrile 3 min, to 50% in 2 min, to 85% in 15 min, held 3 min, 100 µL/min
Details: column: Zorbax Extend-C18 2.1 x 50 mm; eluents: water / acetonitrile, 0.1% formic acid
Report the value in s with no unit label.

The molecule listed as COc1cc(CN2C[C@@H]3C(=O)N(C)C(=O)[C@@H]3C2)cc(OC)c1 has a reported RP-LC retention time of 585

O=C1CCC2(CNC(=O)NCCc3ccccc3)CCCC=C2N1 (centres undefined) has a reported RP-LC retention time of 623

Looking up COc1cc(C(=O)N2CCC3(CC2)NC(=O)c2cc(C)ccc2N3C)cc(OC)c1OC , I found its RP-LC retention time recorded as 730

Lookup result for Cc1ccccc1OCC(=O)N1CC(CN(C)C)C2(CCOCC2)C1 (centres undefined) ; measured RP-LC retention time: 590

Input CCCC(=O)Nc1ccc(-c2nc(Cn3nc(C)cc3C)c(C)o2)cc1 . Output RP-LC retention time: 818

More entries:
Entry O=C(NC1CC1)[C@@H]1C[C@H](Oc2ccccc2)CN1C(=O)c1ccoc1 — recorded RP-LC retention time = 709

Record summary for O=C(CCCn1c(=O)c2cccn2c2ccc(Br)cc21)NCc1ccc2c(c1)OCO2 : reported RP-LC retention time = 915

COC(=O)c1ccc2c(=O)n(-c3cccc(Cl)c3)c(N3CCN(c4ccccn4)CC3)nc2c1 yielded RP-LC retention time of 744

Input COc1ccc(Cl)c(Nc2nc3ccccc3nc2NS(=O)(=O)c2cccc(NC(=O)C(C)(C)N)c2)c1 . Output RP-LC retention time: 879

====

Assay: gradient 5% acetonitrile 3 min, to 50% in 2 min, to 85% in 15 min, held 3 min, 100 µL/min
Conditions: column: Zorbax Extend-C18 2.1 x 50 mm; eluents: water / acetonitrile, 0.1% formic acid
METRIC_NAME: RP-LC retention time (s)
Reply with just the number (in s).

The following compounds have reported results that may help.
Item: CCc1cccc(C)c1NC(=O)C1CCCN(c2nnc(C)c3c(C)n(-c4ccccc4)nc23)C1 (centres undefined) | RP-LC retention time: 775

Entry CC(C)N1C(=O)C(C)(C(=O)NCc2ccc(Br)cc2)Oc2cccnc21 (centres undefined) , RP-LC retention time reported as 1010

Per the record, Cc1cc(C)nc(SCc2cc(=O)c(OC(=O)c3cccc([N+](=O)[O-])c3C)co2)n1 has RP-LC retention time of 883

Documented RP-LC retention time of COc1ccc(CN2N=C(C(=O)N3CCCC3)S(=O)(=O)c3ccccc32)cc1 : 823

GET /value?item= CCOc1ccccc1NC(=O)C(=O)NCCc1ccsc1 &field=RP-LC retention time returns 1020

Continuing:
Recorded result, O=C(NCc1nc2ccccc2[nH]1)c1ccc(OCC(=O)C2CC2)cc1 , RP-LC retention time: 561

Per the record, CCc1ccc(S(=O)(=O)N2CCC(C)(C(=O)NCc3ccccc3C)CC2)cc1 has RP-LC retention time of 1020

Form field RP-LC retention time, entry Cc1ccn2cc(C(=O)N3CCN(C4CCCCC4)CC3)nc2c1 : 566

Recorded RP-LC retention time (compound OC1(c2ccccn2)CCOC2(CCN(Cc3cccc(F)c3)CC2)C1 (centres undefined) ): 554

====

Form field: RP-LC retention time (one value per entry).
Experiment: gradient 5% acetonitrile 3 min, to 50% in 2 min, to 85% in 15 min, held 3 min, 100 µL/min
Details: column: Zorbax Extend-C18 2.1 x 50 mm; eluents: water / acetonitrile, 0.1% formic acid
Give your result in s as a bare value.

Just so you know, measured RP-LC retention time for CCCCCCCCc1ccc(CCC(N)(CO)CO)cc1 came out at 966

The measured RP-LC retention time associated with CC1(C)N=C(N)N=C(N)N1c1ccc(CCCCc2ccc(Cl)cc2Cl)cc1 reads 878

Looking up COCCOCc1nc(C2CCCN2S(=O)(=O)c2ccccc2)no1 (stereo not given) , I found its RP-LC retention time recorded as 781

RP-LC retention time reading for Cc1cc(C)cc(C(=O)N2CCCC2COc2ccc(C(=O)NC(C)C)cc2)c1 (stereo not given) : 922

Briefly, RP-LC retention time measured for CCC1CCCCN1C(=O)c1ccc(-c2nnc3ccc(NC(=O)C4CCC4)cn23)cc1 (stereo not given) : 870

More entries:
Just so you know, measured RP-LC retention time for Cc1ccc(=O)n(-c2ccccc2)c1 came out at 739

Notebook: Cc1ccc(-c2nc3ccccc3[nH]2)cc1NC(=O)c1ccco1 , RP-LC retention time read as 625

Entry Cc1ccc(-n2c(=O)n(CC(=O)NCCN3CCOCC3)c3cccnc32)cc1 — recorded RP-LC retention time = 596

Lab note: measured RP-LC retention time of O=C(Cn1cnc2c(sc3nc(-c4ccccc4)ccc32)c1=O)Nc1cccc(Br)c1 was 1110

Sure, the documented RP-LC retention time for CCc1onc(C)c1C1CCCN1C(=O)c1c(Cl)cnn1CC (stereo not given) is 773

====

Experiment: gradient 5% acetonitrile 3 min, to 50% in 2 min, to 85% in 15 min, held 3 min, 100 µL/min
Details: column: Zorbax Extend-C18 2.1 x 50 mm; eluents: water / acetonitrile, 0.1% formic acid
Lab note: anything with RP-LC retention time at or over 800 s counts as met; the rest go in not met.

Tell me whether RP-LC retention time is at least 800 s here: Cc1ccc(NC(=O)C2CCCN(C(=O)C3Sc4ccccc4NC3=O)C2)c(C)c1 (stereo not given)
not met

Confirm if RP-LC retention time reported for the compound OC(CN1CCN(c2ncccn2)CC1)c1ccc(Cl)cc1 (stereo not given) is 800 s or above.
not met

Reported RP-LC retention time at or above 800 s? CC(C(=O)NCCc1ccco1)n1c(=O)c(C(F)(F)F)nc2ccccc21 (stereo not given)
not met

Please tell me: is the compound COc1ccc(OC)c(NC(=O)CN2CC=C(c3cnn(C)c3)CC2)c1 at or over 800 s in terms of RP-LC retention time?
not met

Below: the item to evaluate.
Item Cn1c(=O)c2cc(C(=O)NCC3CCCCC3)nn2c2ccccc21 with RP-LC retention time of 800 s or above?
met

====

Reported RP-LC retention time is given for each of the following molecules.
Experiment: gradient 5% acetonitrile 3 min, to 50% in 2 min, to 85% in 15 min, held 3 min, 100 µL/min
Settings: column: Zorbax Extend-C18 2.1 x 50 mm; eluents: water / acetonitrile, 0.1% formic acid
Answer with the figure and its unit, nothing else.

# RP-LC retention time (molecule: CC(=O)Nc1ccc(S(=O)(=O)N2CCC(C(=O)N3CCN(c4ncccn4)CC3)CC2)cc1 ) is 666 s

***
Record CC(C(=O)NCCc1c[nH]c2ccc(Cl)cc12)n1c2ccccc2c2cnn(C)c(=O)c21 (centres undefined) , field RP-LC retention time: 930 s

Sample CCCN(C)C(=O)CCc1cc2cc(OC)ccc2[nH]c1=O ; RP-LC retention time observed: 675 s

# RP-LC retention time (molecule: CCc1c(C(=O)O)nnn1-c1ccc2c(c1)CCC2 ) is 796 s

For reference, reported RP-LC retention time for CCOc1ccc(Nc2cc(C(=O)N3CCCC(C)C3)nc3ccc(C)cc23)cc1 (centres undefined) stands at 776 s

What the record says about CCCN1C(=O)COc2ccc(-c3noc(-c4ccc(Cl)cc4OC)n3)cc21 : RP-LC retention time is 1260 s

For Cc1ccc2c(c1)N(C(=O)Cn1cnc(-c3nc(-c4ccccc4)cs3)c1)CCO2 the molecule record lists RP-LC retention time as 954 s

So, COc1ccc(-c2nnc(-c3ccccc3)o2)cc1S(=O)(=O)N1CCSCC1 ? Its RP-LC retention time was 955 s

Short answer for COc1ccccc1NC(=O)N1CCCC(C)(C(=O)NCc2ccc(C)cc2)C1 (centres undefined) : RP-LC retention time was 898 s
